Each recorded value in this set is attributed to ChEMBL document CHEMBL4002631.

# Tested on: Mycobacterium tuberculosis
# test description: Antimycobacterial activity against isoniazid/rifampicin/ethambutol-resistant Mycobacterium tuberculosis clinical isolate after 4 days by Alamar blue assay
# Type: functional
# experimental setup: 96 h
observation type: MIC (µM)
The figure you give is taken to be in µM; do not add the unit.

For "O=C(/C=C/c1ccc(Cl)cc1)N[C@H](CO)Cc1ccccc1" , what is its reported MIC?
50.6

Could you share which MIC value was measured for "O=C(/C=C/c1ccc(OCc2ccccc2)cc1)N[C@H](CO)Cc1ccccc1" ?
41.2

Bench note: what MIC did CO[C@H]1/C=C/O[C@@]2(C)Oc3c(C)c(O)c4c(O)c(c(/C=N/N5CCN(C)CC5)c(O)c4c3C2=O)NC(=O)/C(C)=C\C=C\[C@H](C)[C@H](O)[C@@H](C)[C@@H](O)[C@@H](C)[C@H](OC(C)=O)[C@@H]1C [RIFAMPIN] show?
19.4

Requested field: MIC. Item: "O=C(/C=C/c1cccs1)N[C@H](CO)Cc1ccccc1"
55.6

Consider the molecule "C(=C\c1cccs1)/C1=N[C@@H](Cc2ccccc2)CO1" and give its measured MIC.
7.4

Query: MIC; subject: NNC(=O)c1ccncc1 [ISONIAZID]
58.3

Entry under review: "COc1ccc(/C=C/C2=N[C@@H](Cc3ccccc3)CO2)cc1" . Reported MIC?
6.8

Which MIC is reported for this molecule? "O=C(/C=C/c1ccccc1)N[C@H](CO)Cc1ccccc1"
56.8

For CC1COc2c(N3CCN(C)CC3)c(F)cc3c(=O)c(C(=O)O)cn1c23 (stereo unspecified) [OFLOXACIN] , what is its reported MIC?
5.5

Bench note: what MIC did "Fc1ccc(/C=C/C2=N[C@@H](Cc3ccccc3)CO2)cc1" show?
56.9

Request the reported MIC associated with "COc1ccc(/C=C/C(=O)N[C@H](CO)Cc2ccccc2)cc1"
51.3

What does the data say about its MIC? Entry: "O=C(/C=C/c1ccc(F)cc1)N[C@H](CO)Cc1ccccc1"
53.4

Please look up its MIC: "C(=C\c1ccc(OCc2ccccc2)cc1)/C1=N[C@@H](Cc2ccccc2)CO1"
21.6

Quick check: MIC of "Clc1ccc(/C=C/C2=N[C@@H](Cc3ccccc3)CO2)cc1" ?
26.9

May I ask what MIC has been recorded for "C(=C\c1ccccc1)/C1=N[C@@H](Cc2ccccc2)CO1" ?
30.4
